# Procedure Text: Mouse BBB assay
# Type: in vivo
# Experimental Setup: plasma, oral 10 mg/kg, read-out: Plasma
Value Kind: concentration at 1 h (ng/mL)

In the examples that follow, each entry is paired with its recorded concentration at 1 h.
- Compound: "COCCOc1ccc(N2CCN(C(=O)C(c3ccccc3)n3ncc4c3nc(N)n3nc(-c5ccco5)nc43)CC2)cc1 (single isomer, unassigned) [Compound A13b]"
  concentration at 1 h, ng/mL: 2440
- Compound: "CCCCC(C(=O)N1CCN(c2ccc(OCCOC)cc2)CC1)n1ncc2c1nc(N)n1nc(-c3ccco3)nc21 (single isomer, unassigned) [Compound A10a]"
  concentration at 1 h, ng/mL: 471

A. CCCC(C(=O)N1CCN(c2ccc(OCCOC)cc2)CC1)n1ncc2c1nc(N)n1nc(-c3ccco3)nc21 (single isomer, unassigned)
B. CCCC(C(=O)N1CCN(c2ccc(OCCOCCOC)cc2)CC1)n1ncc2c1nc(N)n1nc(-c3ccco3)nc21 (single isomer, unassigned)
Ask | Which of these two has the smaller recorded concentration at 1 h: A or B ? Returns: label corresponding to the selected item.
Reply | A
(A: 116 ng/mL, B: 173 ng/mL)

* * *

# Subject Of Test: human A2A receptor (A2AR) (Homo sapiens, UniProt P29274)
# Sequence (P29274 whole entry): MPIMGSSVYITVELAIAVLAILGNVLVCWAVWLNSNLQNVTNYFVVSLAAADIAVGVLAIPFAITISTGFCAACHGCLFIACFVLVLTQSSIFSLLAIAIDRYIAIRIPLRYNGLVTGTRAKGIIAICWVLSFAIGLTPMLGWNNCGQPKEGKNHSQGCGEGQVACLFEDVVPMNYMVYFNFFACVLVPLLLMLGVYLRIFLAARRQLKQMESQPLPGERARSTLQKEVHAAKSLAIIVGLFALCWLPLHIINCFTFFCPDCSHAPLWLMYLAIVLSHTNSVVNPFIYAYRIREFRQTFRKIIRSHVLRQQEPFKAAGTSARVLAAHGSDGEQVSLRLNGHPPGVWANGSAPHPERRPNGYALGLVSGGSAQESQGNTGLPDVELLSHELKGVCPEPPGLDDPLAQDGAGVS
# Procedure Text: Luciferase reporter assay (HEK293-A2AR-luc2p/CRE/Hygro cells, 3 nM CGS21680)
# Experimental Setup: 3 nM CGS21680, 5 h incubation
pIC50: −log10 of the molar value.
Value Kind: pIC50

- Molecule: "CN(C)C(=O)C(C)(c1ccccc1)n1ncc2c1nc(N)n1nc(-c3ccco3)nc21 (stereo not shown)"
  pIC50: 7.70
- Molecule: "CCCC(C(=O)N1CCN(c2ccc(OCCN(C)C)cc2)CC1)n1ncc2c1nc(N)n1nc(-c3ccco3)nc21 (single isomer, unassigned) [Compound A39a]"
  pIC50: 6.90
- Molecule: "CCCC(C(=O)N1CCN(c2ccc(F)cc2F)CC1)n1cc2c(nc(N)n3nc(-c4ccco4)nc23)n1 (stereo not shown)"
  pIC50: 7.00
- Molecule: "COCCOc1ccc(N2CCN(C(=O)C(c3ccccc3)n3ncc4c3nc(N)n3nc(-c5ccco5)nc43)C(C)C2)cc1 (single isomer, unassigned) [Compound A50b]"
  pIC50: 9.00
- Molecule: "CCC(C(=O)N1CCN(c2ccc(OCCOC)cc2)CC1)(c1ccccc1)n1ncc2c1nc(N)n1nc(-c3ccco3)nc21 (stereo not shown)"
  pIC50: 7.55

a. CCCCC(C(=O)N1CCN(c2ccc(OCCOC)cc2)CC1)n1ncc2c1nc(N)n1nc(-c3ccco3)nc21 (stereo not shown) [Compound A10]
b. Nc1nc2c(cnn2C(C(=O)N2CCc3ccccc3C2)c2ccccc2)c2nc(-c3ccco3)nn12 (stereo not shown) [Compound B3]
Ask | Compare pIC50: is it lower for a or for b ? Give the label of your selection.
Reply | a
(a: 8.20, b: 8.72)

* * *

# Subject Of Test: human A2A receptor (A2AR) (Homo sapiens)
# Procedure Text: Luciferase reporter assay (HEK293-A2AR-luc2p/CRE/Hygro cells, 3 nM CGS21680)
# Experimental Setup: 3 nM CGS21680, 5 h incubation
Value Kind: IC50 (nM)

- Compound: "COCCOc1ccc(N2CCN(C(=O)C(c3ccccc3)n3ncc4c3nc(N)n3nc(-c5ccco5)nc43)CC2)cc1 (stereo not shown) [Compound A13]"
  IC50 [nM]: 2.9

I. CN1CCN(CCCOc2ccc(N3CCN(C(=O)C(C)(c4ccccc4)n4ncc5c4nc(N)n4nc(-c6ccco6)nc54)CC3)cc2)CC1 (stereo not shown)
II. CN(C)CCOc1ccc(N2CCN(C(=O)C(C)(c3ccccc3)n3ncc4c3nc(N)n3nc(-c5ccco5)nc43)CC2)cc1 (single isomer, unassigned) [Compound A71a]
Ask | Please compare: I and II . Report which one has the smaller IC50 value. Answer = label.
Reply | I
(I: 7.1 nM, II: 10.9 nM)

A. CCCCC(C(=O)N1CCN(c2ccc(OCCOCCOC)cc2)CC1)n1ncc2c1nc(N)n1nc(-c3ccco3)nc21 (stereo not shown) [Compound A11]
B. CCCCC(C(=O)N1CCN(c2ccc(OCCOC)cc2)CC1)n1cc2c(nc(N)n3nc(-c4ccco4)nc23)n1 (stereo not shown)
Ask | Decide: A or B , by lowest recorded IC50. Please indicate the selected item by its label.
Reply | A
(A: 6.9 nM, B: 126 nM)

P. COCCOCCOc1ccc(N2CCN(C(=O)C(c3ccccc3)n3cc4c(nc(N)n5nc(-c6ccco6)nc45)n3)CC2)cc1 (stereo not shown)
Q. CCC(C(=O)N1CCN(c2ccc(OCCOCCOC)cc2)CC1)n1cc2c(nc(N)n3nc(-c4ccco4)nc23)n1 (stereo not shown)
Ask | For P and Q , which recorded IC50 is lower? Provide the label of your selected option as the answer.
Reply | P

a. COC(=O)C1CC2(CCN(C(=O)C(C)(c3ccccc3)n3ncc4c3nc(N)n3nc(-c5ccco5)nc43)CC2)C1 (stereo not shown)
b. COCCOCCOc1ccc(N2CCN(C(=O)C(CC(C)C)n3ncc4c3nc(N)n3nc(-c5ccco5)nc43)CC2)cc1 (stereo not shown) [Compound A17]
c. COCCOc1ccc(N2CCN(C(=O)C(C)n3ncc4c3nc(N)n3nc(-c5ccco5)nc43)CC2)cc1 (single isomer, unassigned) [Compound A1b]
d. C[C@](C(=O)N1CCN(c2ccc(OCCN3CCOCC3)cc2)CC1)(c1ccccc1)n1ncc2c1nc(N)n1nc(-c3ccco3)nc21 [Compound A80b]
e. COCCOc1cc(F)c(N2CCN(C(=O)C(C)(c3ccccc3)n3ncc4c3nc(N)n3nc(-c5ccco5)nc43)CC2)cc1F (stereo not shown)
Ask | I would appreciate it if you could sort these 5 compounds by IC50, starting from the smallest number. # respond with the labels, arranged in the requested order
Reply | b, d, e, a, c

Numbers sourced from patent US20210300936A1.
